# test-target: UniProt O60885
# assay-details: Time Resolved Fluorescence Resonance Energy Transfer (TR-FRET) binding assay, BRD4
# run-parameters: one of the FRET assays described; read-out: FRET BRD4 IC50
pIC50: −log10 of the molar value.
Listing of recorded pIC50 by entry.
quantity-measured: pIC50

In [3]: df
Out[3]:
                                   compound     test_target  result
0  Cc1noc(C)c1-c1cnc2c3ccc(C(C)(C)O)cc3n([C@@H](c3ccccc3)C3CC3)c2c1  UniProt O60885  > 7.60
1  [2H]C([2H])([2H])Oc1ccc(S(=O)(=O)C([2H])([2H])[2H])c2c1c1ncc(-c3c(C)nnn3C)cc1n2[C@H](c1ccccc1)C1CCOCC1  UniProt O60885  > 8.30
2  COc1cc(C(C)(C)O)cc2c1c1ncc(-c3c(C)nnn3C)cc1n2C(c1ccccc1F)C1CCOCC1 (single isomer, unassigned) [Example 138]  UniProt O60885  > 8.30
3  [2H]C([2H])([2H])Oc1nnn(C)c1-c1cnc2c3ccc(NC(=O)OC(C)C)cc3n([C@H](c3ccccc3)C3CCOCC3)c2c1  UniProt O60885  > 8.30
4  Cc1nnn(C)c1-c1cnc2c3ccc(C(C)(C)O)cc3n(C(c3cc(F)ccc3F)C3CCOCC3)c2c1 (single isomer, unassigned) [Example 132]  UniProt O60885  > 8.30
5  [2H]C([2H])([2H])c1nnn(C)c1-c1cnc2c3ccc(C(C)(C)O)cc3n([C@H](c3ccccc3)C3CCOCC3)c2c1  UniProt O60885  > 8.30
